- System: field corn (Zea mays L., var. Dekalb 535, CORN)
- assay overview: Pre-emerge greenhouse test, crop damage rating
- Assay type: in vivo
- details: Rate 125 g al/ha, 14 days after application, rating scale 0-100
Exercise: state measured CORN crop damage rating for each of the compounds provided.

In the examples that follow, each entry is paired with its recorded CORN crop damage rating.
INSERT INTO results (compound, result) VALUES
  ('Nc1cccnc1Oc1cc(-n2c(=O)n3n(c2=S)CCCC3)c(F)cc1Cl [Compound 8-42]', 0),
  ('Nc1ccc(Oc2cc(-n3c(=O)n4n(c3=S)CCCC4)c(F)cc2Cl)nc1 [Compound 8-24]', 0),
  ('O=c1n(-c2cc(Oc3ccc([N+](=O)[O-])cn3)c(Cl)cc2F)c(=S)n2n1CCCC2 [Compound 8-23]', 0),
  ('O=c1n(-c2cc(Oc3nc(Cl)ccc3C(F)(F)F)c(Cl)cc2F)c(=S)n2n1CCCC2 [Compound 8-27]', 0),
  ('O=c1n(-c2cc(Oc3nccc(C(F)(F)F)n3)c(Cl)cc2F)c(=S)n2n1CCCC2 [Compound 8-30]', 10);

For every item in the list below, what is its measured CORN crop damage rating?
1. COc1nc(OC)nc(Oc2cc(-n3c(=O)n4n(c3=S)CCCC4)c(F)cc2Cl)n1 [Compound 8-34]
2. O=c1n(-c2cc(Oc3ncccc3[N+](=O)[O-])c(Cl)cc2F)c(=S)n2n1CCCC2 [Compound 8-19]
3. Cc1nsc(Oc2cc(-n3c(=O)n4n(c3=S)CCCC4)c(F)cc2Cl)c1[N+](=O)[O-] [Compound 8-35]

Result:
0
15
30

* * *

- System: lambsquarters (Chenopodium album, CHEAL)
- assay overview: Post-emerge greenhouse herbicide test, phytotoxicity rating
- Type: in vivo
- details: 500 g al/ha, 14 days after application
I'd appreciate it if you could supply CHEAL phytotoxicity rating (0-100) values for the items below.
Give bare numbers.

INSERT INTO measurements (molecule, numeric_readout) VALUES
  ('O=c1n(CCCF)nnn1-c1cc(Oc2ccc(C(F)(F)F)cn2)c(Cl)cc1F [Compound 6-8]', 95),
  ('Cn1nc(-c2cc(Oc3ncccn3)c(Cl)cc2F)c(Cl)c1C(F)(F)F [Compound 1-7]', 100),
  ('COc1nc(OC)nc(Oc2cc(-c3nc(C)n(C(F)F)c3Cl)c(F)cc2Cl)n1 [Compound 2-4]', 70);

Here is another molecule to look at.
Request: # return recorded CHEAL phytotoxicity rating (0-100) for input O=c1n(CCCF)nnn1-c1cc(Oc2ncccc2[N+](=O)[O-])c(Cl)cc1F [Compound 6-2]
Result: 90

* * *

- Tested on: field corn (Zea mays L., var. Dekalb 535, CORN)
- assay overview: Post-emerge greenhouse test, crop damage rating
- Type: in vivo
- details: 500 g al/ha, 14 days after application
CORN crop damage rating (0-100) below 10 gives FALSE; CORN crop damage rating (0-100) at or above it gives TRUE.

INSERT INTO assay_data (smiles_data, classification) VALUES
  ('CN1CC(=O)N(c2cc(Oc3ncccn3)c(Cl)cc2F)C1=O', 'FALSE'),
  ('O=c1n(CCCF)nnn1-c1cc(Oc2ncc(Br)cn2)c(Cl)cc1F', 'TRUE'),
  ('O=c1cc2n(c(=O)n1-c1cc(Oc3ncccn3)c(Cl)cc1F)CCC2', 'TRUE');

Request: # bool: CORN crop damage rating (0-100) of COc1cc(OC)nc(Oc2cc(-n3nnn(CCCF)c3=O)c(F)cc2Cl)n1 >= 10
Result: FALSE

Request: Given O=c1n(-c2cc(Oc3ccccc3)c(Cl)cc2F)c(=S)n2n1CCCC2 , state whether its CORN crop damage rating (0-100) is at least 10.
Result: TRUE

Request: Please tell me: is the molecule Cn1nc(-c2cc(Oc3cccc(F)n3)c(Cl)cc2F)c(Cl)c1C(F)(F)F at or over 10 in terms of CORN crop damage rating (0-100)?
Result: TRUE

These measurements were taken from patent US6479435B1.
